# EXPERIMENTAL_TARGET: T1, soluble human FcRn (shFcRn) (human, UniProt P55899 24-297; P61769 21-119)
# T1 construct: Biotinylated for the ELISA, amine-coupled to a CM5 chip for SPR; also called biotinylated shFcRn
# T1 sequence (P55899 24-297 limits assumed, chain 1 of 2): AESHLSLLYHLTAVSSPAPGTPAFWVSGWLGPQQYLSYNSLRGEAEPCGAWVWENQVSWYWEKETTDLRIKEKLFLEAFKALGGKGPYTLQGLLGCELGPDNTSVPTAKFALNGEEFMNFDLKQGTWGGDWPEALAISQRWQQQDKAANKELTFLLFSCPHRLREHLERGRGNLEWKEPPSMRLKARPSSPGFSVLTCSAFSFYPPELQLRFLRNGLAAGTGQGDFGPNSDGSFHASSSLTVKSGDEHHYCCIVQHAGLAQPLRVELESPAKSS
# T1 sequence (P61769 21-119 limits assumed, chain 2 of 2): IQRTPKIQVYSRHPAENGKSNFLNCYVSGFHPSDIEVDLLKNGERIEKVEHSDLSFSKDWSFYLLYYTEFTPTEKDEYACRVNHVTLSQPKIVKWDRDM
# PROTOCOL_SUMMARY: SPR pH 6
pKd: −log10 of the molar value. Bridge positions count the residues as written; N and C are the ends. Square brackets hold non-standard residues; d marks the D form. Ends that are not written are not given here. Pen = CC(C)(S)[C@H](N)C(=O)O
Listed next: entries and their corresponding pKd.

# BINDER, pKd
measured = [
    ("QRF[Pen]TGHFGGIYPCNGP-NH2 (disulfide 4-14; N-terminus assumed; SMILES CC[C@H](C)[C@@H]1NC(=O)CNC(=O)CNC(=O)[C@H](Cc2ccccc2)NC(=O)[C@H](Cc2c[nH]cn2)NC(=O)CNC(=O)[C@H]([C@@H](C)O)NC(=O)[C@@H](NC(=O)[C@H](Cc2ccccc2)NC(=O)[C@H](CCCNC(=N)N)NC(=O)[C@@H](N)CCC(N)=O)C(C)(C)SSC[C@@H](C(=O)N[C@@H](CC(N)=O)C(=O)NCC(=O)N2CCC[C@H]2C(N)=O)NC(=O)[C@@H]2CCCN2C(=O)[C@H](Cc2ccc(O)cc2)NC1=O) [Peptide No. 101]", 6.47),
    ("RF[Pen]TGHFGGWYPC-NH2 (disulfide 3-13; N-terminus assumed; SMILES C[C@@H](O)[C@@H]1NC(=O)[C@@H](NC(=O)[C@H](Cc2ccccc2)NC(=O)[C@@H](N)CCCNC(=N)N)C(C)(C)SSC[C@@H](C(N)=O)NC(=O)[C@@H]2CCCN2C(=O)[C@H](Cc2ccc(O)cc2)NC(=O)[C@H](Cc2c[nH]c3ccccc23)NC(=O)CNC(=O)CNC(=O)[C@H](Cc2ccccc2)NC(=O)[C@H](Cc2c[nH]cn2)NC(=O)CNC1=O) [Peptide No. 237]", 6.85),
]
